Measured CLhep, human (predicted hepatic clearance), listed per entry for reference.
Assay: Intrinsic clearance in human liver microsomes (substrate depletion), predicted hepatic clearance
Type: in vitro ADME
Conditions: predicted from human microsomal CLint
READOUT_LABEL: CLhep, human (predicted hepatic clearance) (mL/min/kg)

molecule="Cc1c(Cl)cnc2sc3c(N4CC5(COC5)C4)ncnc3c12 [Compound 15h]" unit_spec=mL/min/kg recorded_result=18
molecule="Cc1c(Cl)cnc2sc3c(NC4CC(c5ccncc5)C4)ncnc3c12 (centres unmarked) [Compound 15e]" unit_spec=mL/min/kg recorded_result=17
molecule="Cc1c(Cl)cnc2sc3c(NC4CC4)ncnc3c12 [Compound 15g]" unit_spec=mL/min/kg recorded_result=15
molecule="Cc1nc2sc3c(NC4CC4)nncc3c2c(C)c1Cl.Cl [Compound 22i]" unit_spec=mL/min/kg recorded_result=15
molecule="Cc1nc2oc3c(NC4CC4)ncnc3c2c(C)c1Cl.Cl [Compound 14o]" unit_spec=mL/min/kg recorded_result=13

----------
Measured hM4 %ACh Max, listed per entry for reference.
Biological target: human M4 (hM4) (Homo sapiens)
Sequence (P08173 whole entry): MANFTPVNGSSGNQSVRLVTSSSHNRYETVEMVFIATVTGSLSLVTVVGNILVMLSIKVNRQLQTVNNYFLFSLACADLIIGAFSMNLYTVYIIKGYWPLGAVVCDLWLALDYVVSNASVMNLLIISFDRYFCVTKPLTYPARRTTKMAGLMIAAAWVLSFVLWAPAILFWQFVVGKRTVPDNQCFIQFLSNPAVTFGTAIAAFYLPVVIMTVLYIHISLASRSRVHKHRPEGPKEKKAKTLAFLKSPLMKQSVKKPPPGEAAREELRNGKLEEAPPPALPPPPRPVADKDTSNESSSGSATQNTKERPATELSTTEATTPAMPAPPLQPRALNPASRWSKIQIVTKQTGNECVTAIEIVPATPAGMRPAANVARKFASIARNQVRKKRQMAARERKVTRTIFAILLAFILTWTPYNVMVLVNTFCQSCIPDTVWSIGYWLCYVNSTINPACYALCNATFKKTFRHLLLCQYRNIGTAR
Experiment: Calcium mobilization assay, hM4/Gqi5-CHO cells, with EC20 acetylcholine (PAM)
Settings: hM4/Gqi5-CHO cells, calcium mobilization, EC20 acetylcholine; maximum response
READOUT_LABEL: hM4 %ACh Max (%)

compound="Cc1nc2sc3c(NC4CC4)nncc3c2c(C)c1Cl.Cl [Compound 22i]" unit_spec=% recorded_result=88
compound="COCCCNc1nncc2c1sc1nc(C)c(Cl)c(C)c12.Cl [Compound 22g]" unit_spec=% recorded_result=67
compound="COc1ccc(CNc2nncc3c2sc2nc(C)c(Cl)c(C)c23)cc1F [Compound 22a]" unit_spec=% recorded_result=69
compound="Cc1c(Cl)cnc2sc3c(N4CCCC4)ncnc3c12 [Compound 15a]" unit_spec=% recorded_result=45
compound="Cc1c(Cl)cnc2sc3c(NC4CC(c5ccncc5)C4)ncnc3c12 (centres unmarked) [Compound 15e]" unit_spec=% recorded_result=65

----------
Target: human M4 (hM4) (Homo sapiens)
Test: Calcium mobilization assay, hM4/Gqi5-CHO cells, with EC20 acetylcholine (PAM)
Conditions: hM4/Gqi5-CHO cells, calcium mobilization, EC20 acetylcholine
Measured hM4 pEC50, listed per entry for reference.
READOUT_LABEL: hM4 pEC50

compound="COc1ccc(CNc2ncnc3c2oc2nc(C)c(Cl)c(C)c23)cc1F.Cl [Compound 14a]" relation_symbol=< recorded_result=5.00
compound="Cc1nc2sc3c(N4CC5(COC5)C4)ncnc3c2c(C)c1Cl.Cl [Compound 13d]" relation_symbol=< recorded_result=5.00
compound="Cc1c(Cl)cnc2sc3c(N4CCCC4)ncnc3c12 [Compound 15a]" relation_symbol== recorded_result=5.22
compound="Cc1nc2sc3c(NCc4ccc(OC(F)F)cc4)nncc3c2c(C)c1Cl [Compound 22e]" relation_symbol== recorded_result=6.27
compound="COCCCNc1nncc2c1sc1nc(C)c(Cl)c(C)c12.Cl [Compound 22g]" relation_symbol== recorded_result=6.72
compound="Cc1c(Cl)cnc2sc3c(NCc4ccncc4)ncnc3c12 [Compound 15d]" relation_symbol== recorded_result=6.50
compound="Cc1nc2sc3c(NC4CC4)nncc3c2c(C)c1Cl.Cl [Compound 22i]" relation_symbol== recorded_result=7.19
compound="Cc1nc2oc3c(NCc4ccc(C(C)(C)O)cc4)ncnc3c2c(C)c1Cl [Compound 14c]" relation_symbol== recorded_result=5.93
compound="Cc1nc2sc3c(NC4CC(c5ccncc5)C4)ncnc3c2c(C)c1Cl.Cl (stereo not drawn) [Compound 13h]" relation_symbol== recorded_result=5.82
